Assay: Ratio of drug level in brain to plasma in Sprague-Dawley rat
Assay type: ADME
Conditions: read-out: BPR
Below, each entry is listed with its recorded Kp.
No unit in the answer, please; the number alone is enough.

{"columns": ["MOLECULE", "Kp"],
 "data": [
  ["CC(C)Oc1ccc(COc2ccc3c(c2)cc2n3CCC2CC(=O)O)cc1C#N (stereo in doubt; 19a)", 0.016],
  ["CC(C)Oc1ccc(COc2ccc3c(c2)c(Cl)c2n3CC[C@@H]2CC(=O)O)cc1C(F)(F)F", 0.27],
  ["O=C(O)CC1CCn2c1cc1cc(OCc3ccc(C4CCCC4)c(C(F)(F)F)c3)ccc12 (stereo in doubt; 12a)", 0.53]
]}

--- query ---
Ask: Given the molecule `CC(C)Oc1ccc(COc2ccc3c(c2)c(Cl)c2n3CC[C@@H]2CC(=O)O)cc1C#N` , what is its reported Kp?
Reply: 0.09
